System: Staphylococcus aureus
procedure.details: Antibacterial activity against Staphylococcus aureus 209P JC1 incubated for 20 hrs by agar dilution method
Assay type: functional
readout.name: MIC (µg/mL)
Return type: number; implicit unit µg/mL.

Exam item: Form field - read-out: MIC; system: Staphylococcus aureus; submitted item: CC1CCN(c2c(F)c3c(c(=O)c(C(=O)O)cn3C3CC3)c3[nH]nnc23)CC1
Marked response: 0.05

Exam item: Next molecule up: NC1CCN(c2c(F)c3c(c(=O)c(C(=O)O)cn3C3CC3)c3[nH]nnc23)C1 (centres undefined)
Marked response: 0.05

Exam item: Next molecule up: NC1CCN(c2c(Cl)c3c(c(=O)c(C(=O)O)cn3C3CC3)c3[nH]nnc23)C1 (centres undefined)
Marked response: 0.05

Exam item: Next molecule up: C[C@@H]1CN(c2c(F)c(N)c3c(=O)c(C(=O)O)cn(C4CC4)c3c2F)C[C@H](C)N1
Marked response: 0.0125
